System: DeltatarO mutant
assayInfo: S. aureus survival, RN4220 and DeltatarO strains – OD600, teichoic acid synthesis inhibitors, primary screen (AID 463173)
settings: S. aureus RN4220 wild type/DeltatarO growth, OD600, 18 h, stronger effect = lower value, screened at 18.75 µg/mL (by protocol)
Screen size: about 52,000 compounds; about 4,300 (8.3%) were called active. For the sample, actives were picked, then their nearest neighbours and some compounds at random.
reportedEndpoint: survival (%)
Report the value in % with no unit label.

Recorded results for 8 compounds are shown here.
| testSmiles | assayedSystem | survival / % |
| --- | --- | --- |
| Cn1c(C(=O)NCc2cccc(F)c2)cc2cc(S(=O)(=O)N3CCCCC3)ccc21 | DeltatarO mutant | 81 |
| O=C(NCc1ccccc1)c1ccc2c(c1)N(Cc1cccc(Cl)c1)C(=O)c1ccccc1S2(=O)=O | DeltatarO mutant | 93 |
| O=C(c1ccc2c(c1)N(Cc1ccc(Cl)cc1)C(=O)c1ccccc1S2(=O)=O)N1CCc2ccccc21 | DeltatarO mutant | 120 |
| Cc1nn(-c2ccc(N3CCCC3)nn2)c(C)c1CCC(=O)Nc1ccc(F)c(Cl)c1 | DeltatarO mutant | 68 |
| O=C(c1ccc2c(c1)N(Cc1ccccc1)C(=O)c1ccccc1S2(=O)=O)N1CCc2ccccc21 | DeltatarO mutant | 81 |
| COc1ccccc1CNC(=O)c1ccc2c(c1)N(Cc1cccc(Cl)c1)C(=O)c1ccccc1S2(=O)=O | DeltatarO mutant | 37 |
| CC(=O)Nc1ccc2c(c1)n(C)c(=O)n2C | DeltatarO mutant | 85 |
| O=C(c1ccc2c(c1)N(Cc1cccc(Cl)c1)C(=O)c1ccccc1S2(=O)=O)N1CCc2ccccc21 | DeltatarO mutant | 0 |

Let us examine a further case.
Would you kindly share the measured survival for COc1ccccc1CNC(=O)c1ccc2c(c1)N(Cc1cccc(C)c1)C(=O)c1ccccc1S2(=O)=O ?
87

====

Test system: DeltatarO mutant
assayInfo: S. aureus survival, RN4220 and DeltatarO strains – OD600, teichoic acid synthesis inhibitors, primary screen (AID 463173)
settings: S. aureus RN4220 wild type/DeltatarO growth, OD600, 18 h, screened at 18.75 µg/mL (by protocol)
Screen size: about 52,000 compounds; about 4,300 (8.3%) were called active. Cut-off read from the data, not from the text of the source: active = survival mostly below about 52% (no sharp cut-off); inactive = mostly above about 56%. The entries come from a sample that favours actives as a whole.
# output must be one of active, inactive

Solved cases (6 shown):
| molecule | labelValue |
| --- | --- |
| CCN(CC)c1ccc2cc(C(=O)Nc3ccc(NC(C)=O)cc3)c(=O)oc2c1 | inactive |
| COc1ccc(Cl)cc1S(=O)(=O)N1CCN(C(=O)c2cc(-c3ccc(Br)cc3)n[nH]2)CC1 | active |
| CCCCN(C(=O)c1cccc(S(=O)(=O)N2CCCCC2)c1)C1CCS(=O)(=O)C1 (centres undefined) | inactive |
| CCCN1CC=C2C(C#N)=C(N)C(C#N)(C#N)C(c3ccc(OCC(N)=O)cc3)C2C1 (centres undefined) | inactive |
| CCCCCN1C(C(=O)c2ccccc2)=C(NC(=O)c2ccc(OC)cc2)c2ccccc2S1(=O)=O | inactive |
| COc1ccc(S(=O)(=O)N2CCN(C(=O)c3cc(-c4ccc(Br)cc4)n[nH]3)CC2)cc1OC | inactive |

Hi, do you know how Cc1ccc2c(c1)N(C(=O)N1CCC(C(=O)NC3CCCCCC3)CC1)CC(C)O2 (centres undefined) came out in this test?
inactive

Hi, do you know how O=C(NCCS(=O)(=O)N1CCN(c2ccccc2F)CC1)C1CC(=O)N(c2ccc(F)cc2)C1 (centres undefined) came out in this test?
inactive

Hi, do you know how Cc1ccc(C(=O)NCC(c2cccs2)S(=O)(=O)c2cccs2)cc1C (centres undefined) came out in this test?
inactive
